# tested_on: T1, rat α-CGRP (Rattus norvegicus, UniProt P01256)
# T1 construct: rat α (1-37); host or cells: synthetic peptide
# T1 sequence (P01256 83-119 limits assumed): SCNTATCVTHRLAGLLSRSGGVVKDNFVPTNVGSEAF
# assay_details: Biacore affinity of antibody G1 Fab and variants to rat α-CGRP
# Type: binding
# experimental_context: 37° C., Fab, screening mode unless underlined
readout_type: α-rat koff (s⁻¹)
Give the value, in units of s⁻¹, as a plain number.

{"molecule": "M36: G1 variant: L1 R28N,T30R; HC-FW3 L99T,A100V (antibody, V domains shown) VH: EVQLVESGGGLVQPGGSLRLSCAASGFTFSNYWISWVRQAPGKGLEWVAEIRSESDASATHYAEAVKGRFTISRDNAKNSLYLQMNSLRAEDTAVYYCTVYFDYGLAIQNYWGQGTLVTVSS VL: EIVLTQSPATLSLSPGERATLSCKASKNVRTYVSWYQQKPGQAPRLLIYGASNRYLGIPARFSGSGSGTDFTLTISSLEPEDFAVYYCSQSYNYPYTFGQGTKLEIK", "readout_value": 0.00479}

Attention now turns to another entry.
[Q] GET /values?readout=α-rat koff&item= M51: G1 variant: L1 R28N; L2 L56I; H2 E54K,A57G; HC-FW3 L99T,A100V (antibody, V domains shown) VH: EVQLVESGGGLVQPGGSLRLSCAASGFTFSNYWISWVRQAPGKGLEWVAEIRSKSDGSATHYAEAVKGRFTISRDNAKNSLYLQMNSLRAEDTAVYYCTVYFDYGLAIQNYWGQGTLVTVSS VL: EIVLTQSPATLSLSPGERATLSCKASKNVTTYVSWYQQKPGQAPRLLIYGASNRYIGIPARFSGSGSGTDFTLTISSLEPEDFAVYYCSQSYNYPYTFGQGTKLEIK
[A] 0.00118
